- assay_summary: qHTS assay to identify small molecule agonists of the RXR signaling pathway - cell viability counter screen (AID 1159529); note: nearly all actives have a fitted effect of over 50% in size; note: potency is the fitted concentration of half-maximal effect
- test_settings: RXR-alpha-bla HEK293T viability, CellTiter-Glo, 16 h; series mostly up to 76.8 µM
- Description: National Center for Advancing Translational Sciences [NCATS] NIH Chemical Genomics Center [NCGC] U.S. Environmental Protection Agency [EPA] National Institutes of Environmental Health Sciences [NIEHS] National Toxicology Program [NTP] U.S. Food and Drug Administration [FDA] The Retinoid X receptor (RXR), a nuclear hormone receptor expressed in liver, spleen, placenta, epidermis, central nervous system. […]
Records with an inconclusive call do not appear. Activity calls are given as the source filed them. Calls come from the whole dose curve; as a rule, active = well fitted cell-killing curve with a large enough effect in the repeat runs; inconclusive = weak or mixed curves, or effect the other way; inactive = no such curve, though single readings can be large or run the other way.
quantity: Potency

Before answering, review these 4 worked examples.
compound	Potency
Cc1cc(C)cc(N)c1	inactive
CC(C)=CCC/C(C)=C/CC/C(C)=C/C(=O)OCC(=O)[C@@]1(O)CC[C@H]2[C@@H]3CCC4=CC(=O)C=C[C@]4(C)[C@H]3[C@@H](O)C[C@@]21C	inactive
Cc1ccc(CO)cc1	inactive
CN1CCCN=C1COC(=O)C(O)(c1ccccc1)C1CCCCC1 (stereo unspecified)	inactive

Potency in this record for CC(C)COCC(CN(Cc1ccccc1)c1ccccc1)N1CCCC1 (stereo unspecified) : 19 µM (active)

Potency in this record for CCCCCC[C@@H](O)C/C=C\CCCCCCCC(=O)O : 38.9 µM (active)

Potency in this record for CCCCCCCCCCC(=O)O : inactive

Potency in this record for CC(C)=CCC1C(=O)N(c2ccccc2)N(c2ccccc2)C1=O : inactive

Potency in this record for N#CCCN(CCO)CCO : inactive

Potency in this record for O=C(/C=C/c1ccc(O)c(O)c1)O[C@@H]1C[C@@](OC(=O)/C=C/c2ccc(O)c(O)c2)(C(=O)O)C[C@@H](O)[C@@H]1O : inactive

Potency in this record for CCOC(=O)/C=C/C(=O)OCC : inactive

----------
- system: Nuclear receptor ROR-gamma (Homo sapiens) (UniProt P51449)
- assay_summary: qHTS assay to identify small molecule antagonists of the retinoid-related orphan receptor gamma (ROR-gamma) signaling pathway (AID 1159521; note: nearly all actives have a fitted effect of over 50% in size)
- test_settings: Tet-on RORgamma CHO cells, RORE-luciferase, 16 h; series mostly up to 92.4 µM
Results filed as inconclusive are left out. Activity calls are given as the source filed them. Calls follow the shape of the dose curve; as a rule, active = well fitted inhibition curve with a large enough effect in the repeat runs; inconclusive = weak or mixed curves, or effect the other way; inactive = no such curve, though single readings can be large or run the other way.
API: response.call in active, inactive

I would be grateful if you could indicate the recorded call for O=C1c2ccccc2C(=O)C1c1ccc(Br)cc1 .
inactive

I would be grateful if you could indicate the recorded call for CN1C[C@H](C(=O)N[C@]2(C)O[C@@]3(O)[C@@H]4CCCN4C(=O)[C@H](Cc4ccccc4)N3C2=O)C[C@@H]2c3cccc4[nH]cc(c34)C[C@H]21 .
inactive

I would be grateful if you could indicate the recorded call for CC(CO)CO .
inactive

I would be grateful if you could indicate the recorded call for CC1(C)S[C@@H]2[C@H](NC(=O)C(c3ccccc3)S(=O)(=O)O)C(=O)N2[C@H]1C(=O)O (stereo partly specified) .
inactive

I would be grateful if you could indicate the recorded call for COC(=O)[C@H]1[C@H]2C[C@@H]3c4[nH]c5cc(OC)ccc5c4CCN3C[C@H]2C[C@@H](OC(=O)/C=C/c2ccc(O)c(OC)c2)[C@@H]1OC .
active

I would be grateful if you could indicate the recorded call for O=[N+]([O-])c1cc(C2CCCCC2)c(O)c([N+](=O)[O-])c1 .
active

I would be grateful if you could indicate the recorded call for CCOC(=O)OC(C)OC(=O)[C@@H]1N2C(=O)[C@@H](NC(=O)[C@H](N)c3ccccc3)[C@H]2SC1(C)C (stereo partly specified) .
inactive

I would be grateful if you could indicate the recorded call for CC(C)C(O)(c1ccc(OC(F)(F)F)cc1)c1cncnc1 (stereo unspecified) .
inactive

I would be grateful if you could indicate the recorded call for CN1CCCC(n2nc(Cc3ccc(Cl)cc3)c3ccccc3c2=O)CC1 (stereo unspecified) .
inactive

I would be grateful if you could indicate the recorded call for CCCCCCCCC(CCCCCC)C(=O)O (stereo unspecified) .
inactive

I would be grateful if you could indicate the recorded call for CCC1CO1 (stereo unspecified) .
inactive

----------
- system: Cytochrome P450 3A4 (Homo sapiens) (UniProt P08684)
- Sequence (P08684 whole entry, looked up): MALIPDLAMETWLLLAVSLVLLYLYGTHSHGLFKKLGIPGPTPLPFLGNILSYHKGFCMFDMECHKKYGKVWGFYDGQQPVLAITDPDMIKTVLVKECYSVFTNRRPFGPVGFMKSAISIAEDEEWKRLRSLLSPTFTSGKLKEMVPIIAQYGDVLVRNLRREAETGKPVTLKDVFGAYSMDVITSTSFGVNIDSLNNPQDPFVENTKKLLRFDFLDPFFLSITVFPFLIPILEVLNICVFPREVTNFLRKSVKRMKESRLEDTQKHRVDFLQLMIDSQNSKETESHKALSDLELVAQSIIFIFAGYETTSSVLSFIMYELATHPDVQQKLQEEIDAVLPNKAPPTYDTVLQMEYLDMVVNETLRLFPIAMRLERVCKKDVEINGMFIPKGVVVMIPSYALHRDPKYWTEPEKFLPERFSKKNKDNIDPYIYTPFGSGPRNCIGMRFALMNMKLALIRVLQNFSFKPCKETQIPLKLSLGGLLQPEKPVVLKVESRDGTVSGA
- assay_summary: Cytochrome P450 Family 3 Subfamily A Member 4 (CYP3A4) small molecule antagonists: luciferase reporter qHTS assay (AID 1671201); note: nearly all actives have a fitted effect of over 50% in size
- test_settings: P450-Glo CYP3A4 enzyme, luciferin luminescence, 1 h; series mostly up to 115 µM
Results filed as inconclusive are left out. Activity calls are given as the source filed them. The call rests on the fitted dose curve; in most records, active means well fitted inhibition curve with a large enough effect in the repeat runs; inconclusive means weak or mixed curves; inactive means no such curve, though single readings can be large or run the other way.
API: response.call in TRUE for active, FALSE for inactive

I would be grateful if you could indicate the recorded call for CC(=O)OCCN(CCOC(C)=O)c1ccc(N=Nc2ccc([N+](=O)[O-])cc2C#N)cc1 .
TRUE

I would be grateful if you could indicate the recorded call for CCCCCCCC/C=C\CCCCCCCCO .
FALSE

I would be grateful if you could indicate the recorded call for Cc1cc(C)c(N)cc1C .
TRUE

I would be grateful if you could indicate the recorded call for CN1C(=O)c2ccccc2C1=O .
FALSE

I would be grateful if you could indicate the recorded call for COc1cc(Nc2c(C#N)cnc3cc(OCCCN4CCN(C)CC4)c(OC)cc23)c(Cl)cc1Cl .
FALSE

I would be grateful if you could indicate the recorded call for CC1=Nc2ccc3ccccc3c2C1(C)C .
FALSE

I would be grateful if you could indicate the recorded call for O=C(/C=C/c1ccccc1)OCCc1ccccc1 .
FALSE

I would be grateful if you could indicate the recorded call for Cc1ccccc1S .
FALSE

I would be grateful if you could indicate the recorded call for C=CCc1ccccc1OCC(O)CNC(C)C (configuration not stated) .
FALSE

I would be grateful if you could indicate the recorded call for CNC(=O)c1cnn(-c2nc(N)c3ncn([C@@H]4O[C@H](CO)[C@@H](O)[C@H]4O)c3n2)c1 .
FALSE

I would be grateful if you could indicate the recorded call for CO[C@]1(NC(=O)CSC(F)F)C(=O)N2C(C(=O)O)=C(CSc3nnnn3CCO)CO[C@H]21 .
FALSE

I would be grateful if you could indicate the recorded call for CC(=O)OCC[N+](C)(C)C .
FALSE

----------
- assay_summary: qHTS assay to test for compound auto fluorescence at 535 nm (green) in HepG2 cell free culture (AID 720686); note: % is set by controls: 0 for no effect and ±100 for the full control effect
- test_settings: Cell-free medium, green autofluorescence 485/535 nm; series mostly up to 91.3 µM
Calls of active or inactive are those of the source. The call rests on the fitted dose curve; in most records, active means well fitted curve in the direction sought with a large enough effect in the repeat runs; inconclusive means weak or mixed curves; inactive means flat fitted curve, though single readings scatter.
quantity: fluorescence, % of fluorescein control

Before answering, review these 5 worked examples.
compound	fluorescence, % of fluorescein control
OC(CCN1CCCC1)(c1ccccc1)C1CCCCC1 (configuration not stated)	-0.0329% [at 18.6 µM] (inactive)
C[C@H]1c2cccc(O)c2C(O)=C2C(=O)[C@]3(O)C(O)=C(C(N)=O)C(=O)[C@@H](N(C)C)[C@@H]3[C@@H](O)[C@@H]21	inactive
CCCCCCCC/C=C\CCCCCCCCCCCC(=O)O	inactive
C/C=C/C=C/C=O	inactive
NCCNCCO	inactive

fluorescence, % of fluorescein control in this record for C=CCc1ccccc1OCC(O)CNC(C)C (configuration not stated) : inactive

fluorescence, % of fluorescein control in this record for O=C(Nc1cccc2c(=O)cc(-c3nn[nH]n3)oc12)c1ccc(OCCCCc2ccccc2)cc1 : inactive

fluorescence, % of fluorescein control in this record for CC1=C(CC=O)C(C)(C)CCC1 : inactive

fluorescence, % of fluorescein control in this record for C=C(C)CCCC(C)CCO (configuration not stated) : inactive

fluorescence, % of fluorescein control in this record for CC(=O)[C@H]1[C@H](C#N)C[C@H]2[C@@H]3CC=C4C[C@@H](O)CC[C@]4(C)[C@H]3CC[C@@]21C : inactive

fluorescence, % of fluorescein control in this record for CCC(OCCCOC)OC(C)=O (configuration not stated) : inactive

----------
- assay_summary: qHTS RealTime-Glo MT Cell Viability Assay in HepG2 cells - 0 hour (AID 1224889); note: nearly all actives have a fitted effect of over 50% in size
- test_settings: RealTime-Glo luminescence; series mostly up to 76.8 µM
Records with an inconclusive call do not appear. The source made the active and inactive calls. Calls come from the whole dose curve; as a rule, active = well fitted cell-killing curve with a large enough effect in the repeat runs; inconclusive = weak or mixed curves, or effect the other way; inactive = flat fitted curve, though single readings scatter.
API: response.call in 1 = active, -1 = inactive

I would be grateful if you could indicate the recorded call for CC1=C(CC=O)C(C)(C)CCC1 .
-1

I would be grateful if you could indicate the recorded call for COC(=O)[C@H]1[C@H]2C[C@@H]3c4[nH]c5cc(OC)ccc5c4CCN3C[C@H]2C[C@@H](OC(=O)/C=C/c2ccc(O)c(OC)c2)[C@@H]1OC .
-1

I would be grateful if you could indicate the recorded call for CCOC(=O)C1=C(C)NC(C)=C(C(=O)OC)C1c1cccc(Cl)c1Cl (stereo not given) .
1

I would be grateful if you could indicate the recorded call for O=C(Cn1ccnc1[N+](=O)[O-])NCCO .
-1

I would be grateful if you could indicate the recorded call for C=C(C)C(=O)OCCOCCOC(=O)C(=C)C .
-1
